- EXPERIMENTAL_SYSTEM: T1, recombinant human HGF (R&D Systems, Catalog No. 294-HGN-025) (human, UniProt P14210 32-728)
- T1 construct: Mature HGF is a disulfide-linked heterodimer of alpha and beta chain cut from one precursor; also called rhHGF (R&D Systems); rhHGF
- T1 sequence (P14210 32-728 limits assumed): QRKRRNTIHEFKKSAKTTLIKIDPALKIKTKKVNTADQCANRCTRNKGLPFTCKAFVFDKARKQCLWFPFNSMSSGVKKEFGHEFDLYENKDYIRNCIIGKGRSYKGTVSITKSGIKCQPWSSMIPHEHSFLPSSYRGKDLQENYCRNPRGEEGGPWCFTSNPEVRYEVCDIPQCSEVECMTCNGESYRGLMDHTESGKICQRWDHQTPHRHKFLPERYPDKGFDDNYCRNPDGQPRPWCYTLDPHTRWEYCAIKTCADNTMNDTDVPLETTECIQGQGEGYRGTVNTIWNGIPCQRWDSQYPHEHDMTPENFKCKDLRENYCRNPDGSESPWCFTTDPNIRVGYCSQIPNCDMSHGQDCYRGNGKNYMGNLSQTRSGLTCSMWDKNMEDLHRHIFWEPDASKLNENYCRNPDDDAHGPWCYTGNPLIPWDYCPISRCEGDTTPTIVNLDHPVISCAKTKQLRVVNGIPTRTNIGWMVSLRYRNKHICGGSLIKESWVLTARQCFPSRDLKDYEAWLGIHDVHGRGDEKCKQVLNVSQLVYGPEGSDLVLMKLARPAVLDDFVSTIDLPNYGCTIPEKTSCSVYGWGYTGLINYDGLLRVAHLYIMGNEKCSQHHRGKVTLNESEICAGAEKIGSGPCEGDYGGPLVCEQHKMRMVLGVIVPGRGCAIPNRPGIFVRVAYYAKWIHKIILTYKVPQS
- PROCEDURE_TEXT: SPR, captured antibody, HGF injected, 25 C
Entries and their koff
Please reply with the bare figure in s⁻¹ and do not write the unit itself.

HE2B8-2 (LR2B8HC + IgG1 constant region G1m(3) allotype allele 1, plus LRMR2B8LC + Kappa constant region Km(3) allotype allele 1) (antibody, V domains shown, Human Engineered 2B8 variant, human IgG1 kappa, made in HEK293E cells) VH: QVQLVQPGAEVVKPGTSVKLSCKASGYTFTTYWMHWVNQAPGQGLEWIGEINPTNGHTNYNEKFKGKATLTVDKSTSTAYMELSSLRSEDTAVYYCARNYVGSIFDYWGQGTLLTVSS VL: DIVMTQSPDSLAMSLGERVTLNCKASENVVSYVSWYQQKPGQSPKLLIYGASNRESGVPDRFSGSGSATDFTLTISSVQAEDVADYHCGQSYNYPYTFGQGTKLEIKR	9.6e-06
HE2B8-3 (LRMR2B8HC + IgG1 constant region G1m(3) allotype allele 1, plus LR2B8LC + Kappa constant region Km(3) allotype allele 1) (antibody, V domains shown, Human Engineered 2B8 variant, human IgG1 kappa, made in HEK293E cells) VH: QVQLVQPGAEVKKPGTSVKLSCKASGYTFTTYWMHWVRQAPGQGLEWIGEINPTNGHTNYNQKFQGRATLTVDKSTSTAYMELSSLRSEDTAVYYCARNYVGSIFDYWGQGTLLTVSS VL: DIVMTQSPDSMAMSVGERVTLNCKASENVVSYVSWYQQKPGQSPKLLIYGASNRNTGVPDRFSGSGSATDFTLTISSVQAEDVADYHCGQSYNYPYTFGQGTKLEIKR	4.1e-06

// below: koff requested for another binder
Data request: Provide koff value for the following binder: HE2B8-4 (LRMR2B8HC + IgG1 constant region G1m(3) allotype allele 1, plus LRMR2B8LC + Kappa constant region Km(3) allotype allele 1) (antibody, V domains shown, Human Engineered 2B8 variant, human IgG1 kappa, made in HEK293E cells) VH: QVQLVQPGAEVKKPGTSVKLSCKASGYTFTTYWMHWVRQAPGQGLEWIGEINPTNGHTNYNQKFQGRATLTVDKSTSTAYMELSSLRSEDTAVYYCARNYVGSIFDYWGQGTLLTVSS VL: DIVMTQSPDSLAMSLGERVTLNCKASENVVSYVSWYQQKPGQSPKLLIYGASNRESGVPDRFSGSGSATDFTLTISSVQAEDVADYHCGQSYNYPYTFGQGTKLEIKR
Data returned: 1.1e-05
